- Test system: PCSK9
- Protocol: In vitro PCSK9 inhibition test: Western blot of PCSK9/ProPCSK9 in culture medium and cells of HepG2 cells
- Format: cell-based, human
- Assay Context: 1.0 micro gram/mL, HepG2, 24 hours, percentage with respect to total amount of PCSK9 in the control
// values below are reported PCSK9 (in culture medium)
Endpoint Name: PCSK9 (in culture medium)

1) CC(C)c1c(C(=O)Nc2ccccc2)c(-c2ccccc2)c(-c2ccc(F)cc2)n1CC[C@@H](O)C[C@@H](O)CC(=O)O [Atr, atorvastatin, reference compound]
129.3%
2) Cc1ccccc1[C@@H]1OCC2(C)C3C[C@H](OC(=O)c4ccc(C#N)cc4)[C@@]4(C)Oc5cc(-c6cccnc6)oc(=O)c5[C@H](O)C4[C@@]3(C)CC[C@@H]2O1 (stereo partly shown)
23.0%
3) CC(=O)OCC1(C)[C@@H](OC(C)=O)CC[C@]2(C)[C@H]3[C@@H](O)c4c(cc(-c5cccnc5)oc4=O)O[C@]3(C)[C@@H](OC(=O)c3ccc(C#N)cc3)C[C@@H]12 (stereo partly shown)
28.3%
4) CC(=O)OC[C@@]1(C)[C@@H]2C[C@H](OC(C)=O)[C@@]3(C)Oc4cc(-c5cccnc5)oc(=O)c4[C@H](O)[C@@H]3[C@@]2(C)CC[C@@H]1OC(C)=O [PPPA, pyripyropene A, reference compound]
45.2%
